Study system: human CD33 P201A (human, UniProt P20138 18-364)
Sequence (P20138 18-364 P201A limits assumed): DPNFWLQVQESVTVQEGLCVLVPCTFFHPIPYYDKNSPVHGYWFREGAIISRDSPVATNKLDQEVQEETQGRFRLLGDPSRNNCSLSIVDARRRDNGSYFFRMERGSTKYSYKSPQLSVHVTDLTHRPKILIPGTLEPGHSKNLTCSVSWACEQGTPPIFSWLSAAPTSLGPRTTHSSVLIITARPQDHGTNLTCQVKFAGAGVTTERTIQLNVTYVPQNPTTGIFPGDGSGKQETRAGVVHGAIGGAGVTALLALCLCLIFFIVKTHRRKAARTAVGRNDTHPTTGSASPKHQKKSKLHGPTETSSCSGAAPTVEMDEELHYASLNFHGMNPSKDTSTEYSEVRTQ
Assay name: alanine scan, flow cytometry, HEK293-T;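 further: antibody binding to each alanine-substituted CD33 mutant expressed transiently in HEK293-T, read as fluorescence minus background, mean of duplicates, relative to wild-type CD33 set as 100%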
Property name: Mean % WT Binding (%)
Only the number, expressed in %, is required.

{"Binder": "Refmab #3 (antibody, V domains shown, In the alanine scan antibodies were used as IgG or Fab) VH: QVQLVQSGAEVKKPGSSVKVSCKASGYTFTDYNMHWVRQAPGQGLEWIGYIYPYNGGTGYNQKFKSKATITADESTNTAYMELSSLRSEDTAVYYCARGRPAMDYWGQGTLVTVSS VL: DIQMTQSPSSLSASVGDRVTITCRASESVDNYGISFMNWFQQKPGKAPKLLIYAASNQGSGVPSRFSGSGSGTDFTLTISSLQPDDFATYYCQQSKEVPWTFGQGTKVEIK", "Unit abbrev": "%", "Mean % WT Binding": 90.9}
{"Binder": "Refmab #2 (antibody, V domains shown, In the alanine scan antibodies were used as IgG or Fab) VH: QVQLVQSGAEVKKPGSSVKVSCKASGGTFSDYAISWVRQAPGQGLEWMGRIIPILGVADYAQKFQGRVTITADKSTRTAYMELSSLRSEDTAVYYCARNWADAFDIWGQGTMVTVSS VL: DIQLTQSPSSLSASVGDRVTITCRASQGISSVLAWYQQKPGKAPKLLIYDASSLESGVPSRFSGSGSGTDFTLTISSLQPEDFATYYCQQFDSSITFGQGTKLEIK", "Unit abbrev": "%", "Mean % WT Binding": 110}
{"Binder": "Refmab #1 (antibody, V domains shown, In the alanine scan antibodies were used as IgG or Fab; also called hP67.6) VH: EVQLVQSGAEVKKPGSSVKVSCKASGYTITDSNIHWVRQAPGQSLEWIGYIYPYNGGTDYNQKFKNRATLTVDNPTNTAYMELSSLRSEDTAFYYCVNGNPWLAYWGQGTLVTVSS VL: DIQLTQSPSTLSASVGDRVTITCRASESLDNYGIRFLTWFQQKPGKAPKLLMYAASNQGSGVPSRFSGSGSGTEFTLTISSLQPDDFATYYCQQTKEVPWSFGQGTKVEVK", "Unit abbrev": "%", "Mean % WT Binding": 85.6}

Now take the following binder into account.
Problem: For the binder Refmab #4 (antibody, V domains shown, In the alanine scan antibodies were used as IgG or Fab) VH: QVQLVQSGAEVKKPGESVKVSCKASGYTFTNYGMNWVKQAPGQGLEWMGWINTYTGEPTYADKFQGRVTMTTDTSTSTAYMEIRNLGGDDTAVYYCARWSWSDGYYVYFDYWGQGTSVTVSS VL: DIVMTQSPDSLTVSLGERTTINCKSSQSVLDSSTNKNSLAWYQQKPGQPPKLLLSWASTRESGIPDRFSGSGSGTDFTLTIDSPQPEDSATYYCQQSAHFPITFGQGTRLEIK , what Mean % WT Binding is on record?
Solution: 103
